Target: Sulfhydryl oxidase 1 (Homo sapiens) (UniProt O00391)
Sequence (O00391 whole entry, looked up): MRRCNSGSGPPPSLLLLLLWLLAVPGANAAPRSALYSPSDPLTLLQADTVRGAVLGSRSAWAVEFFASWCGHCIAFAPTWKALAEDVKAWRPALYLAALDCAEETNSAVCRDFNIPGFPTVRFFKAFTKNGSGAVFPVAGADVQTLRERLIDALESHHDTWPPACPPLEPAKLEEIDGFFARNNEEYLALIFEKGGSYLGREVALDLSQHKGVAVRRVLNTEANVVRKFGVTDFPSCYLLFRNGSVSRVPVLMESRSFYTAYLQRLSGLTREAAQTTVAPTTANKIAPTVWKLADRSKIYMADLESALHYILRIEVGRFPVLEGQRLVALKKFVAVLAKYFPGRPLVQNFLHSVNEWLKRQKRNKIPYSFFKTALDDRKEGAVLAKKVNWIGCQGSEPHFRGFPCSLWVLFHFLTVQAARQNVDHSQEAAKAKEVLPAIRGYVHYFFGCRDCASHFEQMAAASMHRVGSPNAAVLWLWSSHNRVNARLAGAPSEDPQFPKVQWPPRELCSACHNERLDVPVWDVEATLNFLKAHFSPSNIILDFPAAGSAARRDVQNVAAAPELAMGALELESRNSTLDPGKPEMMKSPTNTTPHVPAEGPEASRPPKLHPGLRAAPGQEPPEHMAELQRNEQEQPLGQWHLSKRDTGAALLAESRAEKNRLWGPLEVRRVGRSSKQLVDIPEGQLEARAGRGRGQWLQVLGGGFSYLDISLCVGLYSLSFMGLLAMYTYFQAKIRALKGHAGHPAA
Assay: QSOX1 enzyme inhibitors, confirmation, biochemical, ROS-Glo luminescence, single concentration (AID 1347421);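 further: 0% = DMSO wells with enzyme and 100% = wells lacking QSOX1 enzyme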
Conditions: recombinant hQSOX1, RNase A substrate, ROS-Glo H2O2 luminescence; at 10 µM
Over roughly 1,500 compounds, “activity” has its median near 2; the lowest 2% begin near -18. This excerpt belongs to a sample that is enriched for the lowest values.
READOUT_KIND: activity (%)
All answers are understood in %, so give the number only.

For Sulfhydryl oxidase 1 (Homo sapiens) (UniProt O00391), provide activity of COc1ccc(N2CCN(C(=O)c3ccc(-n4cnnc4)cc3Cl)CC2)cc1 please.
-13.7

For Sulfhydryl oxidase 1 (Homo sapiens) (UniProt O00391), provide activity of O=C(Nc1ccccc1C(=O)NC1CC1)c1ccccc1Cl please.
11.7

For Sulfhydryl oxidase 1 (Homo sapiens) (UniProt O00391), provide activity of COc1ccc(NC(=O)NC2CC(=O)N(CC(C)(C)C)C2)c(OC)c1 (stereo unspecified) please.
-1.6

For Sulfhydryl oxidase 1 (Homo sapiens) (UniProt O00391), provide activity of CCn1c(SCC(=O)N2CCCCCC2)nc2ccccc21 please.
-11.6

For Sulfhydryl oxidase 1 (Homo sapiens) (UniProt O00391), provide activity of C=CCC1(CC=C)CCCN1C(=O)c1cn(CC2COc3ccccc3O2)nn1 (stereo unspecified) please.
-0.3

For Sulfhydryl oxidase 1 (Homo sapiens) (UniProt O00391), provide activity of COc1cccc(CN2CCCC3(CCN(Cc4ccccn4)C3)C2)c1OC (stereo unspecified) please.
7.4

For Sulfhydryl oxidase 1 (Homo sapiens) (UniProt O00391), provide activity of COc1ccc2oc3nc(=O)c4ccccc4c-3cc2c1 please.
-123

For Sulfhydryl oxidase 1 (Homo sapiens) (UniProt O00391), provide activity of O=C(CCc1ccncc1)N1CCOC(Cc2ccccc2Cl)C1 (stereo unspecified) please.
3.1

For Sulfhydryl oxidase 1 (Homo sapiens) (UniProt O00391), provide activity of O=C(Cn1ccnc1)N(CC1CCN(C2Cc3ccccc3C2)CC1)CC1CCCO1 (stereo unspecified) please.
7.8

For Sulfhydryl oxidase 1 (Homo sapiens) (UniProt O00391), provide activity of O=C(O)c1cn(CCOc2ccccc2)c2ccccc12 please.
-13.2

For Sulfhydryl oxidase 1 (Homo sapiens) (UniProt O00391), provide activity of O=C(CSc1nnc(-c2ccco2)o1)Nc1ccc(Br)cc1 please.
2.3

For Sulfhydryl oxidase 1 (Homo sapiens) (UniProt O00391), provide activity of CN(Cc1cccs1)C(=O)c1ccc(OC2CCN(S(C)(=O)=O)CC2)c(Cl)c1 please.
12.2

For Sulfhydryl oxidase 1 (Homo sapiens) (UniProt O00391), provide activity of O=C(CN1C(=O)CCNC1=O)N1CCC(OCc2ccccc2)CC1 please.
2.9

For Sulfhydryl oxidase 1 (Homo sapiens) (UniProt O00391), provide activity of CCN1CCN(CC(O)COc2cccc(CNCCCSC)c2)CC1 (stereo unspecified) please.
9.1

For Sulfhydryl oxidase 1 (Homo sapiens) (UniProt O00391), provide activity of C=C(C)CN(CC)C(=O)c1cc(COc2ccc(-n3cncn3)cc2)on1 please.
9.4

For Sulfhydryl oxidase 1 (Homo sapiens) (UniProt O00391), provide activity of Cc1occc1-c1nnc2n1N=C(c1ccccc1)CS2 please.
-19.7

For Sulfhydryl oxidase 1 (Homo sapiens) (UniProt O00391), provide activity of Cc1cc(C)c(C(=O)N2CCCC(CCC(=O)N(C)CCc3ccccn3)C2)c(=O)[nH]1 (stereo unspecified) please.
7.3

For Sulfhydryl oxidase 1 (Homo sapiens) (UniProt O00391), provide activity of CCOc1ccc(Cl)cc1S(=O)(=O)NC(C)C please.
3.5

For Sulfhydryl oxidase 1 (Homo sapiens) (UniProt O00391), provide activity of Cc1cc(N2CCN(C(=O)c3cn(Cc4ccccc4F)nn3)CC2)cc(C)n1 please.
2.1

For Sulfhydryl oxidase 1 (Homo sapiens) (UniProt O00391), provide activity of CCn1c(CN2CCCC2)nc2ccccc21 please.
-5.8

For Sulfhydryl oxidase 1 (Homo sapiens) (UniProt O00391), provide activity of CCC1=[C+]c2c(nc(C)nc2N2CCOCC2)S1 please.
-20.3

For Sulfhydryl oxidase 1 (Homo sapiens) (UniProt O00391), provide activity of Cc1cnc(C)c(N2C[C@H]3OC(=O)N(C4CCCC4)[C@H]3C2)n1 please.
7.1

For Sulfhydryl oxidase 1 (Homo sapiens) (UniProt O00391), provide activity of COC(=O)c1ccc(CNC(=O)CC2C(=O)NCCN2Cc2cccs2)cc1 (stereo unspecified) please.
2.8

For Sulfhydryl oxidase 1 (Homo sapiens) (UniProt O00391), provide activity of OC(COc1ccccc1CNCCc1cnccn1)CN1CCSCC1 (stereo unspecified) please.
7.9

For Sulfhydryl oxidase 1 (Homo sapiens) (UniProt O00391), provide activity of COCCCNc1nc2nonc2nc1N(C)CCN1CCOCC1 please.
-1.4

For Sulfhydryl oxidase 1 (Homo sapiens) (UniProt O00391), provide activity of Cc1noc(C)c1CC(=O)N1CCCC(CCC(=O)N(C)CCc2ccccn2)C1 (stereo unspecified) please.
5.3

For Sulfhydryl oxidase 1 (Homo sapiens) (UniProt O00391), provide activity of CC(=O)Nc1ccc(S(=O)(=O)N2CCN(C(=O)N3CCCCCC3)CC2)cc1 please.
-1.3

For Sulfhydryl oxidase 1 (Homo sapiens) (UniProt O00391), provide activity of NC(=O)C1(N2CCCCC2)CCN(C(=O)C2CCC(=O)N(C3CCCC3)C2)CC1 (stereo unspecified) please.
5.6

For Sulfhydryl oxidase 1 (Homo sapiens) (UniProt O00391), provide activity of Cc1ccccc1C(=O)Nc1c(Cl)ccc2nsnc12 please.
0.9

For Sulfhydryl oxidase 1 (Homo sapiens) (UniProt O00391), provide activity of CSc1ncc(CN2CCCC(CO)(CCOc3ccccc3)C2)cn1 (stereo unspecified) please.
10.5

For Sulfhydryl oxidase 1 (Homo sapiens) (UniProt O00391), provide activity of COc1ccc(F)cc1S(=O)(=O)NC(C)C please.
-2

For Sulfhydryl oxidase 1 (Homo sapiens) (UniProt O00391), provide activity of COc1ccc(CNCCCSC)cc1OCC(O)CN(C)C(C)C (stereo unspecified) please.
3.5

For Sulfhydryl oxidase 1 (Homo sapiens) (UniProt O00391), provide activity of COc1ccc(C(C)N(C)Cc2nc(-c3ccc(OC)cc3OC)oc2C)cc1 (stereo unspecified) please.
5.7

For Sulfhydryl oxidase 1 (Homo sapiens) (UniProt O00391), provide activity of c1ccc(-c2noc(CN3CCN(Cc4ccc5c(c4)OCO5)CC3)n2)cc1 please.
7.5

For Sulfhydryl oxidase 1 (Homo sapiens) (UniProt O00391), provide activity of Cc1nc(CC(=O)N2CCCC(CCC(=O)N3CCN(c4ccccn4)CC3)C2)cs1 (stereo unspecified) please.
-2.5

For Sulfhydryl oxidase 1 (Homo sapiens) (UniProt O00391), provide activity of O=C(c1ccc(-c2ccccc2)cc1)C1CCCN(C(=O)CN2C(=O)CSC2=O)C1 (stereo unspecified) please.
5.7

For Sulfhydryl oxidase 1 (Homo sapiens) (UniProt O00391), provide activity of O=C(Nc1ccc(-c2nc3ccccc3[nH]2)cc1)c1ccccn1 please.
5.8

For Sulfhydryl oxidase 1 (Homo sapiens) (UniProt O00391), provide activity of O=C(NC(=O)N1CCCC1)c1ccc(Cl)cc1 please.
-2.8

For Sulfhydryl oxidase 1 (Homo sapiens) (UniProt O00391), provide activity of NC(=O)C1CCCN(Cc2cn(-c3ccccc3)nc2-c2ccc3c(c2)OCO3)C1 (stereo unspecified) please.
-1.5

For Sulfhydryl oxidase 1 (Homo sapiens) (UniProt O00391), provide activity of COc1ccccc1CCN1CCC(CN(C)C(=O)c2cscn2)CC1 please.
-1.8

For Sulfhydryl oxidase 1 (Homo sapiens) (UniProt O00391), provide activity of COCCN1CCC(CN(Cc2ccncc2)Cc2csc(C(C)=O)c2)CC1 please.
-7.9

For Sulfhydryl oxidase 1 (Homo sapiens) (UniProt O00391), provide activity of CC1CCN(Cc2nnnn2CCCC(=O)N(C)CCC(O)c2ccccc2)CC1 (stereo unspecified) please.
7.2

For Sulfhydryl oxidase 1 (Homo sapiens) (UniProt O00391), provide activity of CCOC(=O)C1(CCCc2ccccc2)CCN(C(=O)CCn2cnnn2)CC1 please.
0.6

For Sulfhydryl oxidase 1 (Homo sapiens) (UniProt O00391), provide activity of CC(NC(=O)CSc1nc(O)cc(=O)[nH]1)c1ccccc1 (stereo unspecified) please.
-17.8

For Sulfhydryl oxidase 1 (Homo sapiens) (UniProt O00391), provide activity of CN(CCc1ccccn1)c1ncccc1CNC1CSCCSC1 please.
-4

For Sulfhydryl oxidase 1 (Homo sapiens) (UniProt O00391), provide activity of CCS(=O)(=O)c1ncc(CN(C)CC(O)c2ccccc2)n1Cc1ccccc1 (stereo unspecified) please.
6.9
